Sourced from patent US9809574B2

# Tested on: RS4; 11 leukaemia cell line
# method_notes: In vitro cytotoxicity, Microculture Tetrazolium Assay (MTT)
# Type: cell-based
# assay_setup: Homo sapiens, 11 cells exposed for 48 hours
The entries below are paired with their reported IC50.

smi	result_units	IC50
C[C@@H]1Cc2ccccc2CN1C(=O)c1cc2c(cc1-c1cc(C(=O)N(C)c3ccc(O)cc3)c3n1CCCC3)CN(C(=O)Oc1ccccc1)C2	nM	20
Cc1c(C(=O)N(C)c2ccc(O)cc2)cc(-c2cc3c(cc2C(=O)N2Cc4ccccc4C[C@H]2CN2CCOCC2)CN(C(=O)Nc2ccccc2)CC3)n1C	nM	92
COc1cccc(CCC(=O)N2CCc3cc(-c4cc(C(=O)N(C)c5ccc(O)cc5)c(C)n4C)c(C(=O)N4Cc5ccccc5C[C@H]4CN4CCOCC4)cc3C2)c1	nM	99
Cc1c(C(=O)N(C)c2ccc(O)cc2)cc(-c2cc3c(cc2C(=O)N2Cc4ccccc4C[C@H]2CN2CCN(C)CC2)CN(C(=O)Cc2ccccc2)CC3)n1C	nM	52
Cc1c(C(=O)N(C)c2ccc(O)cc2)cc(-c2cc3c(cc2C(=O)N2Cc4ccccc4C[C@H]2C)CN(C(=O)CC2CCCCC2)CC3)n1C	nM	32
COc1ccc(CC(=O)N2Cc3cc(C(=O)N4Cc5ccccc5C[C@H]4C)c(-c4cc(C(=O)N(C)c5ccc(O)cc5)c(C)n4C)cc3C2)cc1	nM	31
